# Tested on: NCI-H460 lung
Answer each item with its documented GI50.

Prompt line: Query GI50 for "COc1cc(/C=C/C(=O)c2ccc(Cl)cc2)ccc1OS(=O)(=O)c1ccc(C)cc1"
Response line: 17.3 µM

Prompt line: Query GI50 for "CCN(CC)CCCCCCCNc1c2ccc(Cl)cc2nc2ccc(OC)cc12"
Response line: 0.416 µM

Prompt line: Query GI50 for C[C@H]1CCC/C=C/[C@@H]2C[C@H](O)C[C@H]2[C@H](O)[C@@H](S(=O)CCN(C)C)CC(=O)O1 (some centres not stated)
Response line: 0.351 µM

Prompt line: Query GI50 for "Oc1cc2cccc[n+]2c2cccc(Cl)c12"
Response line: 82.1 µM

Prompt line: Query GI50 for "C=C1C(=O)O[C@H]2[C@H]1CC/C(Cn1cc(-c3ccccc3)nn1)=C\CC[C@@]1(C)O[C@@H]21"
Response line: 7.74 µM

Prompt line: Query GI50 for O=C(C(Br)Br)C(Br)C(Br)c1ccccc1 (configuration not stated)
Response line: 24.5 µM

Prompt line: Query GI50 for "OCCCCC#Cc1ccccc1C#Cc1ccccc1C(F)(F)F"
Response line: 17.9 µM
